- assay.system: Tyrosine-protein kinase Mer (Mus musculus)
- Sequence (Q60805 whole entry): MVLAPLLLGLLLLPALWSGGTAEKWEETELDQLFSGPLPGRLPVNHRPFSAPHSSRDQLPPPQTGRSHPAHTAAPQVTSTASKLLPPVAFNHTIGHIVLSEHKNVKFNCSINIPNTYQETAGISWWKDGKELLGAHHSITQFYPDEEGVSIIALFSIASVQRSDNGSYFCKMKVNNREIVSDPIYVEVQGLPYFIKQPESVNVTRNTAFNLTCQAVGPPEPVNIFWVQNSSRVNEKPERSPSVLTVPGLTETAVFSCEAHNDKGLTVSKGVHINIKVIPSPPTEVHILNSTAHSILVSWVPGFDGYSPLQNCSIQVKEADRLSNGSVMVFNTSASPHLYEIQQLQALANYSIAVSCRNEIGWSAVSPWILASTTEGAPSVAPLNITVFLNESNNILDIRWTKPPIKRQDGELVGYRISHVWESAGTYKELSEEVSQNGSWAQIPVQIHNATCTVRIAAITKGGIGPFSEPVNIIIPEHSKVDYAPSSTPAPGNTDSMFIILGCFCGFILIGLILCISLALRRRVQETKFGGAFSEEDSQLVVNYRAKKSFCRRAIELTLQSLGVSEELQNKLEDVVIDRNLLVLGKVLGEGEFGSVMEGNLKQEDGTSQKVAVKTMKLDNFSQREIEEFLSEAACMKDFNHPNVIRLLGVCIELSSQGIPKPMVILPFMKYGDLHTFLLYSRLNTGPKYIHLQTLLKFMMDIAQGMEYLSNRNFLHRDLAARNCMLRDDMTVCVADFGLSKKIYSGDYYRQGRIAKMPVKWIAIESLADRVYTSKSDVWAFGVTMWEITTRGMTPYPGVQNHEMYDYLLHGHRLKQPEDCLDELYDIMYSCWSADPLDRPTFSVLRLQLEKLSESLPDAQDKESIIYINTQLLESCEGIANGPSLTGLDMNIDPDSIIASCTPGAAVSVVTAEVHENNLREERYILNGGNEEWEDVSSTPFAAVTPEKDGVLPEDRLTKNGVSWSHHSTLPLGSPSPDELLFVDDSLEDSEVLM
- assay.name: Inhibition of Mer in mouse BaF3 cells
pIC50: −log10 of the molar value.
measured.property: pIC50

Use these answered entries as a reference point.
CC(C)n1cc(C(=O)Nc2ccc(Oc3ncnc4c3CCN(C(=O)CC3CCN(C)CC3)C4)c(F)c2)c(=O)n(-c2ccc(F)cc2)c1=O: 6.82
CC(C)n1cc(C(=O)Nc2ccc(Oc3ncnc4c3CN(C(=O)CN3CCN(C)CC3)C4)c(F)c2)c(=O)n(-c2ccc(F)cc2)c1=O: 6.96
CC(C)n1cc(C(=O)Nc2ccc(Oc3ncnc4c3CCN(CC(=O)N3CCN(C)CC3)C4)c(F)c2)c(=O)n(-c2ccc(F)cc2)c1=O: 6.43

[a] CC(C)n1cc(C(=O)Nc2ccc(Oc3ncnc4c3CN(C)CC4)c(F)c2)c(=O)n(-c2ccc(F)cc2)c1=O
[b] CC(C)n1cc(C(=O)Nc2ccc(Oc3ncnc4c3CCN(CC3CCN(C)CC3)C4)c(F)c2)c(=O)n(-c2ccc(F)cc2)c1=O
Asked: // max by pIC50 over [ a , b ] Lab log: write the label of the selected item as the result.
Given back: b
(b: 7.11, a: 6.09)

[P] CC(C)n1cc(C(=O)Nc2ccc(Oc3ncnc4c3CCN(C(=O)CN3CCOCC3)C4)c(F)c2)c(=O)n(-c2ccc(F)cc2)c1=O
[Q] CC(C)Cn1cc(C(=O)Nc2ccc(Oc3ncnc4c3CCN(CC3CCN(C)CC3)C4)c(F)c2)c(=O)n(-c2ccc(F)cc2)c1=O
[R] CC(C)n1cc(C(=O)Nc2ccc(Oc3ncnc4c3CCN(C(=O)CCN3CCCC3)C4)c(F)c2)c(=O)n(-c2ccc(F)cc2)c1=O
[S] CN1CCC(CN2CCc3c(ncnc3Oc3ccc(NC(=O)c4cn(C5CC5)c(=O)n(-c5ccc(F)cc5)c4=O)cc3F)C2)CC1
Asked: Ascending sort, pIC50. Please write the labels in the order that was asked for.
Given back: S, P, R, Q

[A] CN1CCC(CN2CCc3c(ncnc3Oc3ccc(NC(=O)c4cn(CCF)c(=O)n(-c5ccc(F)cc5)c4=O)cc3F)C2)CC1
[B] CC(C)n1cc(C(=O)Nc2ccc(Oc3ncnc4c3CN(CC3CCN(C)CC3)C4)c(F)c2)c(=O)n(-c2ccc(F)cc2)c1=O
[C] CC(C)n1cc(C(=O)Nc2ccc(Oc3ncnc4c3CN(C(=O)CN3CCOCC3)C4)c(F)c2)c(=O)n(-c2ccc(F)cc2)c1=O
[D] CC(C)n1cc(C(=O)Nc2ccc(Oc3ncnc4c3CN(CC3CCOCC3)C4)c(F)c2)c(=O)n(-c2ccc(F)cc2)c1=O
Asked: Ascending sort, pIC50. Please write the labels in the order that was asked for.
Given back: C, D, A, B
(C: 6.14, D: 6.62, A: 6.89, B: 7.10)

[1] CN1CCC(CN2CCc3c(ncnc3Oc3ccc(NC(=O)c4cn(CC5CC5)c(=O)n(-c5ccc(F)cc5)c4=O)cc3F)C2)CC1
[2] CC(C)n1cc(C(=O)Nc2ccc(Oc3ncnc4c3CCN(CC(=O)N3CCC3)C4)c(F)c2)c(=O)n(-c2ccc(F)cc2)c1=O
Asked: // max by pIC50 over [ 1 , 2 ] Lab log: write the label of the selected item as the result.
Given back: 1
(1: 7.29, 2: 6.43)
